# Measurement Target: β-secretase(BACE) (Homo sapiens, UniProt P56817)
# Construct: purchased Panvera
# Sequence (P56817 46-501): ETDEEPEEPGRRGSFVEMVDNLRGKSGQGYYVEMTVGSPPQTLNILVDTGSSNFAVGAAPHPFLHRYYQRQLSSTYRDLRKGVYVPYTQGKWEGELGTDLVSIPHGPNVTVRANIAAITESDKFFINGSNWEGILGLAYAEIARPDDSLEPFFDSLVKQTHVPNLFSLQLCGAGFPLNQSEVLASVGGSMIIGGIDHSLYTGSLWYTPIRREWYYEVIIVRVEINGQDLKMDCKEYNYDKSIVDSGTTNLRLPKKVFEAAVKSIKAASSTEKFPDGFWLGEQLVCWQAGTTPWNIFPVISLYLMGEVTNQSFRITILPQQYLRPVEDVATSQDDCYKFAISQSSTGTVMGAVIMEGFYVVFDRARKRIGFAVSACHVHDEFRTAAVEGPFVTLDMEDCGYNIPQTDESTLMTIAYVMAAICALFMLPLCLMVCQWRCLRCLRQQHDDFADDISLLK
# Measurement Notes: BACE % Inhibition Assay ((Aedens)-[…]-(Dabcyl K-amide) substrate)
# Assay type: biochemical
# Particulars: 10 μM test compound; % error ±10%; read-out: % Inhibition
Quantity Kind: inhibition at 10 µM

Structure String	inhibition at 10 µM
CN(C(=O)c1cc(CN2Cc3cc(Oc4ccccc4)ccc3N=C2N)ccn1)C1CCCCC1	81%
CN(CCN1Cc2cc(C(=O)c3ccccc3)ccc2N=C1N)C(=O)C1CCCCC1	76%
CCCN1Cc2cc(Oc3cccc(NC4CCCCC4)c3)ccc2N=C1N	82%

# context switch: different compound, same inhibition at 10 µM
Value sought: inhibition at 10 µM, system β-secretase(BACE) (Homo sapiens, UniProt P56817), item `CCCN1Cc2cc(Oc3cccc(NC(=O)OCc4ccccc4)c3)ccc2N=C1N` . Result: 71%

====

# Measurement Target: β-secretase(BACE) (Homo sapiens, UniProt P56817)
# Construct: purchased Panvera
# Measurement Notes: BACE % Inhibition Assay ((Aedens)-[…]-(Dabcyl K-amide) substrate)
# Type: biochemical
# Particulars: 1 μM test compound; % error ±10%
Quantity Kind: inhibition at 1 µM

// known answers, use as guide
Compound	Quantity Kind	Recorded Measurement
NC1=Nc2ccc(Oc3ccccc3)cc2CN1C(CCNC(=O)C1CCCC1)C1CCCCC1 (stereo not shown) [Compound 392]	inhibition at 1 µM	116%
CCCC(CNC(=O)OC(C)(C)C)N1Cc2cc(Oc3ccccc3)ccc2N=C1N (stereo not shown) [Compound 318]	inhibition at 1 µM	70%
NC1=Nc2ccc(Oc3ccccc3)cc2CN1C(CCNC(=O)CC1CCCC1)C1CCCCC1 (stereo not shown) [Compound 393]	inhibition at 1 µM	52%

# context switch: different compound, same inhibition at 1 µM
Value sought: inhibition at 1 µM, system β-secretase(BACE) (Homo sapiens, UniProt P56817), item NC1=Nc2ccc(Oc3ccccc3)cc2CN1CCC(=O)NC12CC3CC(CC(C3)C1)C2 [Compound 365] . Result: 86%

====

# Measurement Target: β-secretase(BACE) (Homo sapiens)
# Construct: purchased Panvera
# Measurement Notes: BACE Assay-2 (FS1 substrate, IC50 and Ki)
# Format: biochemical
# Particulars: procedure of Example 159, FS1 substrate; read-out: Ki μM (159)
One threshold, 0.2 µM, splits the recorded Ki values: lower ones are True, equal or higher ones are False.

Examples from the recorded data:
Compound	Class
CN(C(=O)c1ccnc(CN2Cc3cc(Oc4ccccc4)ccc3N=C2N)c1)C1CCCCC1	True
CCCN1Cc2cc(Oc3cccc(N(C(=O)OCc4ccccc4)C4CCCCC4)c3)ccc2N=C1N	False
NC1=Nc2ccc(C(=O)c3ccccc3)cc2CN1CCCCNC(=O)C1CCCCC1	False
NC1=Nc2ccc(Oc3ccccc3)cc2CN1CCNC(=O)NC1CCCCC1	False
CN(CCCN1Cc2cc(Oc3ccccc3)ccc2N=C1N)C1CCCCC1	False

query: State whether 0.2 µM exceeds Ki recorded for `CN(C(=O)c1cccc(CN2Cc3cc(-c4ccccc4)ccc3N=C2N)c1)C1CCCCC1` .
result: True

query: State whether 0.2 µM exceeds Ki recorded for `NC1=Nc2ccc(Oc3ccccc3)cc2CN1CCNC(=O)C1CC1` .
result: False

query: State whether 0.2 µM exceeds Ki recorded for `CN(C(=O)CC[C@@H](C1CCOCC1)N1Cc2cc(Oc3ccccc3)ccc2N=C1N)C1CCCCC1` .
result: True

query: State whether 0.2 µM exceeds Ki recorded for `NC1=Nc2ccc(C(=O)c3ccccc3)cc2CN1CCCCC(=O)N(C1CCCCC1)C1CCCCC1` .
result: False

query: State whether 0.2 µM exceeds Ki recorded for CCC(c1cccc(C(=O)N(C2CCCCC2)C2CCCCC2)c1)N1Cc2cc(-c3ccccc3OC)ccc2N=C1N (stereo not shown) .
result: True

query: State whether 0.2 µM exceeds Ki recorded for `NC1=Nc2ccc(Oc3ccccc3)cc2CN1CCCNC(=O)C1CCCCC1` .
result: True

query: State whether 0.2 µM exceeds Ki recorded for `CCCN1Cc2cc(Oc3cccc(NC(=O)CCCC(=O)N(C)C4CCCCC4)c3)ccc2N=C1N` .
result: False

query: State whether 0.2 µM exceeds Ki recorded for CCC(c1cccc(C(=O)N(C2CCCCC2)C2CCCCC2)c1)N1Cc2cc(Oc3ccccc3)ccc2N=C1N (stereo not shown) .
result: False

All figures here come from patent US8383637B2.
